Assay procedure: chemical genetic growth profiling, strain panel (AID 1159580);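 note: tested at 20 µM; growth read once vehicle control cultures reached saturation at 30 °C; 1 = growth at the plate median or of vehicle wells; lower values mean less growth of the strain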
Experimental setup: S. cerevisiae deletion strains, growth OD, locus YFL029C, strain CAK1, hits give low values
Out of some 5,500 compounds screened, about 2,000 (36%) were called active. Roughly 18% stayed inconclusive and do not appear here. The list shows a part of the results.
Observable: normalized growth
Lab note: write the figure by itself, no unit.

Some entries whose results are on file:
Compound | Observable | Reported value
O=C1CSC(c2cccnc2)N1c1ccc(Cl)cc1Cl (stereo not drawn) | normalized growth | 0.98
O=C(NCCSCc1cccc(C(F)(F)F)c1)Nc1cccc(C(F)(F)F)c1 | normalized growth | 0.991
O=C(NCc1ccncc1)c1ccc(-n2cccn2)cc1 | normalized growth | 0.988
CSc1cc(-c2ccncc2)nc(-c2cccs2)c1 | normalized growth | 0.952
CCCc1c(C(=O)NNc2cccc(Cl)c2)cnn1-c1ccccc1 | normalized growth | 0.98

Query: Please list normalized growth recorded for the compound "Cc1c(C)c(C)c(CSC(N)=Nc2ccc(F)cc2)c(C)c1C"
Reply: 0.993

Query: Please list normalized growth recorded for the compound "O=c1c(Cl)c(-n2cccn2)cnn1-c1ccc(Cl)cc1Cl"
Reply: 0.916

Query: Please list normalized growth recorded for the compound "O=C(c1ccc2ccccc2c1)N1CCN(c2ccnc3cc(Cl)ccc23)CC1"
Reply: 1

---

Assay procedure: chemical genetic growth profiling, strain panel (AID 1159580)
Experimental setup: S. cerevisiae deletion strains, growth OD, locus YDR052C, strain DBF4, hits give low values
About 2,000 (36%) of roughly 5,500 compounds were called active. Another 18% or so got no clear call; they are omitted. Some of the results follow.
Observable: normalized growth

Some entries whose results are on file:
Compound | Observable | Reported value
N#CC(C#N)=C/C=C(/Sc1nc2ccccc2s1)c1ccc(Br)cc1 | normalized growth | 0.695 (active)
O=C(NC(=O)c1c(F)cccc1Cl)OCc1ccc(Cl)cc1Cl | normalized growth | 0.978 (inactive)
O=C(NCCSCc1ccco1)Nc1cc(Cl)cc(Cl)c1 | normalized growth | 0.972 (inactive)

Now turn to the next molecule.
Query: Please list normalized growth recorded for the molecule "O=C(Nc1ccc(C(F)(F)F)cc1)N1CCN(c2ccnc3cc(Cl)ccc23)CC1"
Reply: 0.983 (inactive)

---

Assay procedure: chemical genetic growth profiling, strain panel (AID 1159580)
Experimental setup: S. cerevisiae deletion strains, growth OD, locus YPL078C, strain atp4, hits give low values
Hit rate of the full screen: of about 5,500 compounds, about 2,000 (36%) were called active. Roughly 18% stayed inconclusive and do not appear here. The list shows a part of the results.
normalized growth by entry:
Lab note: write the figure by itself, no unit.

Some entries whose results are on file:
Compound | Observable | Reported value
Nc1ccc(C(=O)NCC(=O)O)cc1 | normalized growth | 1.02
Cc1c(O)c(O)cc2c1CC=C1[C@@]2(C)CC[C@@]2(C)C3C[C@](C)(C(=O)O)CC[C@]3(C)CC[C@]12C (stereo not given in full) | normalized growth | 0.62
CN1C(CC(=O)c2ccccc2)CCCC1CC(O)c1ccccc1 (stereo not given) | normalized growth | 0.991
C1CCN2CC3CC(CN4CCCCC34)C2C1 (stereo not given) | normalized growth | 1
O=[N+]([O-])c1cc(O)c(O)c([N+](=O)[O-])c1 | normalized growth | 0.992
CC(C)(C)NC[C@@H](O)COc1nsnc1N1CCOCC1 | normalized growth | 1.01

Query: Please list normalized growth recorded for the compound COc1ccccc1OCCNCC(O)COc1cccc2[nH]c3ccccc3c12 (stereo not given)
Reply: 1.03

Query: Please list normalized growth recorded for the compound "COc1cc2c(c(OC)c1OC)-c1ccc(OC)c(=O)cc1[C@@H](NC(C)=O)CC2"
Reply: 1.02

Query: Please list normalized growth recorded for the compound C=C(NC(=O)C(=C)NC(=O)c1csc(C2=NC3c4csc(n4)C4NC(=O)c5csc(n5)C(C(C)(O)C(C)O)NC(=O)C5CSC(=N5)C(=CC)NC(=O)C(C(C)O)NC(=O)c5csc(n5)C3(CC2)NC(=O)C(C)NC(=O)C(=C)NC(=O)C(C)NC(=O)C(C(C)CC)NC2C=Cc3c(C(C)O)cc(nc3C2O)C(=O)OC4C)n1)C(N)=O (stereo not given)
Reply: 1.01

Query: Please list normalized growth recorded for the compound "CCN(CC)CCOc1ccc(/C(=C(\Cl)c2ccccc2)c2ccccc2)cc1"
Reply: 0.232

---

normalized growth by entry:
Assay procedure: chemical genetic growth profiling, strain panel (AID 1159580);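 note: tested at 20 µM; growth read once vehicle control cultures reached saturation at 30 °C; 1 = growth at the plate median or of vehicle wells; lower values mean less growth of the strain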
Experimental setup: S. cerevisiae deletion strains, growth OD, locus YML094W, strain GIM5, hits give low values
The whole screen tested about 5,500 compounds, of which about 2,000 (36%) were called active. Inconclusive results (about 18%) are left out. This is one part of the list.
Lab note: write the figure by itself, no unit.

Compound | normalized growth
CCCc1cc(Br)c(-n2cccc2)c(Br)c1 | 1.01

Query: Please list normalized growth recorded for the compound "CN(/N=C\c1ccccc1)c1ncc(C(F)(F)F)cc1Cl"
Reply: 0.929

Query: Please list normalized growth recorded for the compound "Fc1cc2n[nH]nc2cc1Cl"
Reply: 0.979

Query: Please list normalized growth recorded for the compound "O=C(NCCSCc1ccco1)c1ccc(Cl)cc1"
Reply: 0.989

---

Assay procedure: chemical genetic growth profiling, strain panel (AID 1159580);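 note: tested at 20 µM; growth read once vehicle control cultures reached saturation at 30 °C; 1 = growth at the plate median or of vehicle wells; lower values mean less growth of the strain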
Experimental setup: S. cerevisiae deletion strains, growth OD, locus YNR052C, strain pop2
Hit rate of the full screen: of about 5,500 compounds, about 2,000 (36%) were called active. Another 18% or so got no clear call; they are omitted. Rule as the data show it: active = normalized growth mostly below about 0.91 (no sharp cut-off); inconclusive = no clear call, values can overlap the other calls; inactive = mostly above about 0.92. This is one part of the list.
Entry note: the call must match one of yes (active), no (inactive)

These solved cases illustrate the format of a correct answer.
Compound | Class name
CCOP(=S)(OCC)SCn1c(=O)oc2cc(Cl)ccc21 | no
COC(=O)Oc1ccccc1C(=O)O | no
CC(C)NCC(O)c1ccc2ccccc2c1 (stereo not given) | no

Query: For this compound, state the assay outcome: CC(=O)c1c(O)c(C)c(O)c2c1OC1=CC(=O)C(C(C)=O)C(=O)C12C (stereo not given)
Reply: yes

Query: For this compound, state the assay outcome: "COc1c2c(cc3c1OCO3)CCN(C)C2"
Reply: no

Query: For this compound, state the assay outcome: "CCC[C@H]1CC2=C(C[C@@H](CC)CC3=C1C(=O)OC3=O)C(=O)OC2=O"
Reply: no

Query: For this compound, state the assay outcome: "COc1ccc(C(Cl)=C(c2ccc(OC)cc2)c2ccc(OC)cc2)cc1"
Reply: no

Query: For this compound, state the assay outcome: "OC[C@@H](O)[C@@H](O[C@@H]1O[C@H](CO)[C@@H](O)[C@H](O)[C@H]1O)[C@H](O)[C@@H](O)CO"
Reply: no

Query: For this compound, state the assay outcome: "O[N+]1=CC=CCC1=S.On1ccccc1=S.[Zn]"
Reply: yes

Query: For this compound, state the assay outcome: CCC(Cc1c(I)cc(I)c(N)c1I)C(=O)O (stereo not given)
Reply: no

Query: For this compound, state the assay outcome: "CS(=O)(=O)CCCCN=C=S"
Reply: yes

Query: For this compound, state the assay outcome: "Cc1occc(=O)c1O"
Reply: no

Query: For this compound, state the assay outcome: CC(=O)O[C@@H]1CC2C(C)(C)C(=O)CC[C@]2(C)C2CC[C@]3(C)C(=CC(=O)O[C@H]3c3ccoc3)[C@@]21C (stereo not given in full)
Reply: no

Query: For this compound, state the assay outcome: CSCCC(NC=O)C(=O)NC(C)C(=O)O (stereo not given)
Reply: no

Query: For this compound, state the assay outcome: CC(C)(C)NCC(O)c1ccccc1Cl (stereo not given)
Reply: no

---

Assay procedure: chemical genetic growth profiling, strain panel (AID 1159580);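 note: tested at 20 µM; growth read once vehicle control cultures reached saturation at 30 °C; 1 = growth at the plate median or of vehicle wells; lower values mean less growth of the strain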
Experimental setup: S. cerevisiae deletion strains, growth OD, locus YJL168C, strain set2, hits give low values
Hit rate of the full screen: of about 5,500 compounds, about 2,000 (36%) were called active. Roughly 18% stayed inconclusive and do not appear here. The list shows a part of the results.
Observable: normalized growth
Lab note: write the figure by itself, no unit.

Query: Please list normalized growth recorded for the molecule CC(=O)OCC1(C)CCC2(C)CCC3(C)C4=CCc5c(cc(OC(C)=O)c(OC(C)=O)c5C)C4(C)CCC3(C)C2C1 (stereo unspecified)
Reply: 1.01

Query: Please list normalized growth recorded for the molecule "Cc1ccc(/C(=C\CN2CCCC2)c2ccccn2)cc1"
Reply: 1

Query: Please list normalized growth recorded for the molecule "COc1cc2c(c(OC)c1OC)-c1ccc(OC)c(=O)cc1[C@@H](NC(C)=O)CC2"
Reply: 1.02

Query: Please list normalized growth recorded for the molecule "CCC[C@H]1CC2=C(C[C@@H](CC)CC3=C1C(=O)OC3=O)C(=O)OC2=O"
Reply: 1.01

Query: Please list normalized growth recorded for the molecule O=C1O[C@H](C(O)CO)C(O)=C1O (stereo partly specified)
Reply: 0.979

Query: Please list normalized growth recorded for the molecule CC1(C)C(=O)C=C[C@@]2(C)C1=C(O)C(=O)[C@]1(C)C2CC[C@@]2(C)[C@H](c3ccoc3)C[C@H]3O[C@]321 (stereo partly specified)
Reply: 0.985

Query: Please list normalized growth recorded for the molecule "NCCCC[C@H](N[C@@H](CCc1ccccc1)C(=O)O)C(=O)N1CCC[C@H]1C(=O)O"
Reply: 0.995

Query: Please list normalized growth recorded for the molecule CC1(C)C(=O)C=CC2(C)C3CCC4(C)C(c5ccoc5)CC5OC54C3C(O)CC12 (stereo unspecified)
Reply: 1.01

Query: Please list normalized growth recorded for the molecule "COc1c2c(cc3c1OCO3)CCN(C)C2"
Reply: 1

The measurements presented in this section are drawn from PubChem BioAssay AID1159580.
